biological target: UniProtKB P35348; test: Intrinsic activity at α1A-ARs, β-lactamase reporter gene, FRET substrate; assay type: cell-based; parameters: key: ANT—antagonist; AGO—agonist; conditions: functional profile
Sequence (P35348 whole entry): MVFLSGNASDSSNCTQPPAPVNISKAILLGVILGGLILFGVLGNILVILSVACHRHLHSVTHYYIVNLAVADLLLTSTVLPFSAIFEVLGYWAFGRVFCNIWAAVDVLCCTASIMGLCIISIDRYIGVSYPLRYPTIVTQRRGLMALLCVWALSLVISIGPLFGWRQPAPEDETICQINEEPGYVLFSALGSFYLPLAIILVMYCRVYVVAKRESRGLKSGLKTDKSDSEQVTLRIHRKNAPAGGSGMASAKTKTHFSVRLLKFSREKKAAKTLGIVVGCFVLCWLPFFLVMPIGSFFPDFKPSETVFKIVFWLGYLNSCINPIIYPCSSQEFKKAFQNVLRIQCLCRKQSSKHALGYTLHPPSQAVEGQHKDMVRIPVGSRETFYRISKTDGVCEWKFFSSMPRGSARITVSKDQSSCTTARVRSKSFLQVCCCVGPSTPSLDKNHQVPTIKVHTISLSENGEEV
Quantity Kind: α1A Profile

{"Compound": "COc1cc2nc(N3CCN(C(=O)C4CCCO4)CC3)nc(N)c2cc1OC (stereo not shown) [terazosin, reference compound]", "Value Reported": "ANT"}
{"Compound": "O=S(=O)(NCC1CCN(CCOc2ccccc2OCC(F)(F)F)CC1)c1cccc(Cl)c1F [Compound 9]", "Value Reported": "ANT"}
{"Compound": "COc1ccc(S(=O)(=O)NCC2CCN(CCOc3ccccc3OCC(F)(F)F)CC2)cc1OC [Compound 12]", "Value Reported": "ANT"}
{"Compound": "O=S(=O)(NCC1CCN(CCOc2ccccc2OCC(F)(F)F)CC1)c1cc(Cl)ccc1F [Compound 10]", "Value Reported": "ANT"}
{"Compound": "CCOc1ccccc1OCCN[C@H](C)Cc1ccc(OC)c(S(N)(=O)=O)c1 [tamsulosin, reference compound]", "Value Reported": "ANT"}
{"Compound": "O=S(=O)(NCC1CCN(CCOc2ccccc2OCC(F)(F)F)CC1)c1ccc(F)cc1 [Compound 8]", "Value Reported": "ANT"}

----------
biological target: α2-ARs; assay: Radioligand binding, displacement of [3H]-Clonidine from α2-ARs on rat cerebral cortex; settings: ± SEM, two independent experiments

{"Smi": "O=S(=O)(N[C@@H]1CCN(CCOc2ccccc2OCC(F)(F)F)C1)c1ccc(F)cc1", "Ki (nM)": 1690}
{"Smi": "COc1ccc(S(=O)(=O)N[C@H]2CCN(CCOc3ccccc3OCC(F)(F)F)C2)cc1OC", "Ki (nM)": 1140}
{"Smi": "O=S(=O)(N[C@@H]1CCN(CCOc2ccccc2OCC(F)(F)F)C1)c1cc(Cl)ccc1F", "Ki (nM)": 1190}

----------
molecular target: α1D-ARs (Homo sapiens, UniProt P25100); test: Intrinsic activity at α1D-ARs, aequorin calcium mobilization luminescence; assay type: cell-based; conditions: antagonist, as worded in abstract and text; read-out: EC50(α1D)
Sequence (P25100 whole entry): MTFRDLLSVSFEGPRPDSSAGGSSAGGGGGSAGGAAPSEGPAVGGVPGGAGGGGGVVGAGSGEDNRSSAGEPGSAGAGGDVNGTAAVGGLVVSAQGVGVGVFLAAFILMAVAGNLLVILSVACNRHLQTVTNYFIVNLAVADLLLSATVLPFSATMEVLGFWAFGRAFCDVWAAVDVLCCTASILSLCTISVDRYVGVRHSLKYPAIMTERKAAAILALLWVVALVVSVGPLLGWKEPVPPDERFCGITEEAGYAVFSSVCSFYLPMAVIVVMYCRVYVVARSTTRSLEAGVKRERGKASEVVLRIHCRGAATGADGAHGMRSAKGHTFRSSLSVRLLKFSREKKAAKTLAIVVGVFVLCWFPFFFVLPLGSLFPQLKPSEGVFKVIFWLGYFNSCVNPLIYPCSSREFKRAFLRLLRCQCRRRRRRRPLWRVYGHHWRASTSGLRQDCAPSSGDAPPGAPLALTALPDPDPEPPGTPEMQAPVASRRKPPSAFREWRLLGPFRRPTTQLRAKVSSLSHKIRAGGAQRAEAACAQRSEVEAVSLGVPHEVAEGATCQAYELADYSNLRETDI
pEC50: −log10 of the molar value.
Entries and their pEC50 values follow.
Quantity Kind: pEC50

{"Molecule": "COc1ccc(S(=O)(=O)NCC2CCN(CCOc3ccccc3OCC(F)(F)F)CC2)cc1OC [Compound 12]", "Value Reported": "8.57 to 8.96"}
{"Molecule": "O=S(=O)(NCC1CCN(CCOc2ccccc2OCC(F)(F)F)CC1)c1cccc(Cl)c1F [Compound 9]", "Value Reported": 8.96}
{"Molecule": "O=S(=O)(NCC1CCN(CCOc2ccccc2OCC(F)(F)F)CC1)c1cc(Cl)ccc1F [Compound 10]", "Value Reported": "8.57 to 8.96"}
{"Molecule": "O=S(=O)(NCC1CCN(CCOc2ccccc2OCC(F)(F)F)CC1)c1ccc(F)cc1 [Compound 8]", "Value Reported": "8.57 to 8.96"}

----------
experiment: In vitro metabolic stability in rat-liver microsomes (RLM); type: in vitro ADME; details: male, rat, rat liver microsomes, pH 7.4; RLM 0.2 mg/mL, compound 10 μM, 37 °C; read-out: t½
Quick list: half-life at 10 μM per entry.
Quantity Kind: half-life at 10 μM (min)

{"Compound": "O=S(=O)(NCC1CCN(CCOc2ccccc2OCC(F)(F)F)CC1)c1cccc(Cl)c1F [Compound 9]", "Value Units": "min", "Value Reported": 51.5}
{"Compound": "CCOc1ccccc1OCCN[C@H](C)Cc1ccc(OC)c(S(N)(=O)=O)c1 [tamsulosin, reference compound]", "Value Units": "min", "Value Reported": 83}
{"Compound": "CC(C)Oc1ccccc1OCCN1CCC(CNS(=O)(=O)c2cccc(Cl)c2F)CC1 [Compound I]", "Value Units": "min", "Value Reported": 40}
{"Compound": "O=S(=O)(NCC1CCN(CCOc2ccccc2OCC(F)(F)F)CC1)c1cc(Cl)ccc1F [Compound 10]", "Value Units": "min", "Value Reported": 37.8}
